Target: Aromatase (Homo sapiens)
Sequence (P11511 whole entry): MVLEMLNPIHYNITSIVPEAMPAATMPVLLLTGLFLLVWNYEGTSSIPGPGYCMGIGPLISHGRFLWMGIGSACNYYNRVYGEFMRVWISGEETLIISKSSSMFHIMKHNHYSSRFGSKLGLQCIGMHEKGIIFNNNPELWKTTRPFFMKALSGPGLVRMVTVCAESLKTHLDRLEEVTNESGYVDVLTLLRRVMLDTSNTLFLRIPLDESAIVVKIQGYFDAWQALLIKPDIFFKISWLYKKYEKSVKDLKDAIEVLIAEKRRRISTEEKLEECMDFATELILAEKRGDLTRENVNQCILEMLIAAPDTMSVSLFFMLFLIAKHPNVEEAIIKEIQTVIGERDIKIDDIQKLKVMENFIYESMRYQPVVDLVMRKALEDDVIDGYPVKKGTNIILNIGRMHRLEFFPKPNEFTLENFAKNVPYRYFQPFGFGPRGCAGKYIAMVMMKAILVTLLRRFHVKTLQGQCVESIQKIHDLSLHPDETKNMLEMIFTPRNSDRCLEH
pIC50: −log10 of the molar value.
System: Aromatase (Homo sapiens) | Read-out: pIC50 | Origin: multiple publications
Recorded endpoint: pIC50

- Compound: "CCOc1ccc(-c2csc(-c3ccncc3)n2)cn1"
  pIC50: 5.87
- Compound: "Fc1ccc(CC(Cc2ccc(-c3ccccc3)cc2)n2ccnc2)cc1 (stereo not drawn)"
  pIC50: 6.96

A. CCCc1cn(C(c2ccc(C#N)cc2)c2ccc(C#N)cc2)nn1
B. Cc1ccc(OCc2cn(C(c3ccc(C#N)cc3)c3ccc(C#N)cc3)nn2)cc1
[ask] // returns A or B , whichever has the lower pIC50 Reply briefly: the label of your chosen item.
[reply] B
(B: 4.96, A: 5.33)
